# Test system: swine
# Experimental protocol: pilot physiological study in healthy, chronically instrumented swine
# Format: in vivo
# Assay conditions: animal 2, two-step infusion; 24h 10 min
Measurement kind: LV dP/dtmax (mmHg/s)
Reply with just the number (in mmHg/s).

Input: Looking for the measured LV dP/dtmax of COCCOc1ccc(-c2cn(-c3ccccc3)c3ncn(COP(=O)(O)O)c(=O)c23)cc1 , can you help?
Output: 3950

* * *

# System: swine
# Experimental protocol: pilot physiological study in healthy, chronically instrumented swine
# Type: in vivo
# Assay conditions: animal 1, three-step infusion; 10 min
Measurement kind: LV dP/dtmax (mmHg/s)
Reply with just the number (in mmHg/s).

Input: Looking for the measured LV dP/dtmax of COCCOc1ccc(-c2cn(-c3ccccc3)c3ncn(COP(=O)(O)O)c(=O)c23)cc1 [DMX-10001] , can you help?
Output: 3290
